system: SF-295 CNS; test: NCI tumour cell line growth inhibition, 48 h
Entries and their measured TGI follow.
RECORDED ENDPOINT: TGI

MOLECULE | RECORDED ENDPOINT | MEASUREMENT
C=Cc1c(C)c2cc3[nH]c(cc4nc(cc5nc(cc1[nH]2)C(C)=C5CCC(=O)N(CC)CC)C(CCC(=O)N(CC)CC)=C4C)c(C)c3C=C | TGI | > 100 µM
O=c1c2c3c(sc2nc2n1N=CN(c1ccc(F)cc1)C2)CCCC3 | TGI | > 100 µM
COc1cccc2nc3c(C(=O)NCCN(C)C)cccc3nc12 | TGI | 36.8 µM
C=C(CN1c2ccccc2Sc2ccccc21)c1ccc(C(=O)Nc2ccccc2N)cc1 | TGI | > 100 µM
O=c1[nH]c(=O)n([C@@H]2O[C@H](CO)[C@@H](O)[C@@H]2F)cc1I | TGI | > 100 µM
O=C(/C=C\n1cnc(-c2cc(C(F)(F)F)cc(C(F)(F)F)c2)n1)N1CC(F)(F)C1 | TGI | > 17 µM
COc1ccc2oc(C(=O)N3CC(CCl)c4ccc(N)cc43)cc2c1 (stereo not given) | TGI | > 100 µM
C=CC[C@]1(C2=NC(C)(C)CO2)c2ccccc2-c2ccccc2[C@H]1C(C)=O | TGI | 19.1 µM
CCN(CC)c1nc(NC2CCCCC2)c2nc(N(CC)CC)nc(NC3CCCCC3)c2n1 | TGI | > 100 µM
C/C(O)=C(\C=NC(=S)c1ccncc1)C(=O)Nc1ccccc1C | TGI | > 100 µM
CCCCCCCCCCOC(=O)c1cc[n+](C)cc1 | TGI | 30.3 µM
O=C([CH-]C(=O)c1ccccc1)c1ccccc1.O=C([CH-]C(=O)c1ccccc1)c1ccccc1.O=C([CH-]C(=O)c1ccccc1)c1ccccc1.[Cl-].[Zr+4] | TGI | > 100 µM
O=C(/C(=N/Nc1ccccc1)c1ccc([N+](=O)[O-])cc1)c1ccc([N+](=O)[O-])cc1 | TGI | > 100 µM
CC1=C(C(=O)Nc2ccccc2)C(c2cc(Cl)cc(Cl)c2)C(C(=O)Nc2ccccc2)=C(C)N1 | TGI | 28.8 µM
Nc1c2cc3ccc2nc2ccc(cc12)OCCOCCOCCOCCOCCOCCO3 | TGI | > 10 µM
COc1ccc2[nH]c(C(=O)OCc3ccc4cccc(O)c4n3)cc2c1 | TGI | 18.1 µM
N#C/C(=C\c1ccccc1)C(NO)Nc1ccccc1 (stereo not given) | TGI | > 100 µM
COc1cc2c3c(c1OC)C(=O)C=C3N(S(=O)(=O)c1ccc(C)cc1)CC2 | TGI | > 100 µM
COC[C@H]1C(=O)NCC(=O)N2N=CCC[C@H]2C(=O)N(O)[C@H](C)C(=O)O[C@@H](C(C)C)[C@H](NC(=O)[C@@](C)(O)[C@]2(O)CC[C@@H](CC(C)C)[C@H](C)O2)C(=O)N2NCCC[C@@H]2C(=O)N1O | TGI | 0.0311 µM
O=C1/C(=C/c2ccccc2)CCCc2ccccc21 | TGI | 35.9 µM

---

Collected TGI values appear next to each entry.
tested on: EKVX NSCLC; assay: NCI tumour cell line growth inhibition, 48 h
RECORDED ENDPOINT: TGI (µM)

COMPOUND | READING QUALIFIER | MEASUREMENT
C[C@H]1O[C@@H](C(C)(C)C)OC(=O)[C@@H]1C(OC(=O)c1ccccc1)c1cccc2ccccc12 (some centres undefined) | > | 100
CC12OC(C(=O)C13CCC3)C1C(=O)c3ccc4c(ccc5ccccc54)c3C(=O)C12 (centres undefined) | = | 63.7
Cc1cccc(Nc2cc(Cl)nc(SCC(=O)O)n2)c1C | > | 100
C=C1C(=O)O[C@H]2[C@H]1CC/C(COC(=O)NCCc1cccc(OC)c1)=C\CC[C@@]1(C)O[C@@H]21 | = | 4.25
